compounds and their reported % Control 1 DPT (Fleas/Ticks): Fleas
# System: cat fleas (Ctenocephalides felis)
# assayMethodText: Control of cat fleas on treated dogs (Biological Examples 1-3)
# Type: in vivo
# statedConditions: dogs, 10 mg/kg, 30 mg/mL in 1:1 dimethyl sulfoxide/corn oil, 1 day post-treatment, versus placebo group
Form entry: value (%) — number only.

compound="CCOC(C)C(=O)N(C)c1c([S+]([O-])C(F)(F)F)c(C#N)nn1-c1c(Cl)cc(C(F)(F)F)cc1Cl (mixture of isomers)" subjectoftest="cat fleas (Ctenocephalides felis)" recordedvalue=100
compound=CCCN(C(=O)OC(C)C)c1c(SC(F)(F)F)c(C#N)nn1-c1c(Cl)cc(C(F)(F)F)cc1Cl subjectoftest="cat fleas (Ctenocephalides felis)" recordedvalue=98

Indicate its recorded % Control 1 DPT (Fleas/Ticks): Fleas; the compound in question is `CCCOC(=O)N(CCC)c1c(SC(F)(F)F)c(C#N)nn1-c1c(Cl)cc(C(F)(F)F)cc1Cl`
96

====

# assayMethodText: Emesis in treated dogs
# Format: in vivo
# statedConditions: dogs, 10 mg/kg
# Procedure: By the term “emesis” is meant vomiting. Generally an emetic substance elicits emesis in less than 24 hours after administration, usually less than 8 hours, more usually less than 2 hours. By the term “substantially non-emetic” is meant that, generally, when a compound or composition of the invention is administered to a population of animals, more than 70% (or at least ⅔) of the animals are free of emesis. […]
reportedMetric: % Emesis (%)
Form entry: value (%) — number only.

Below, each entry is followed by its recorded % Emesis result.
molecule="CN(C(=O)C1CCCO1)c1c(SC(F)(F)F)c(C#N)nn1-c1c(Cl)cc(C(F)(F)F)cc1Cl (racemic)" unittag=% recordedvalue=0
molecule=CCCN(C(=O)OC(C)C)c1c(SC(F)(F)F)c(C#N)nn1-c1c(Cl)cc(C(F)(F)F)cc1Cl unittag=% recordedvalue=0
molecule=CN(C(=O)c1ccco1)c1c(SC(F)(F)F)c(C#N)nn1-c1c(Cl)cc(C(F)(F)F)cc1Cl unittag=% recordedvalue=0

Indicate its recorded % Emesis; the molecule in question is `CCCOC(=O)N(C)c1c(SC(F)(F)F)c(C#N)nn1-c1c(Cl)cc(C(F)(F)F)cc1Cl`
0

Indicate its recorded % Emesis; the molecule in question is CC(C)OCC(=O)N(C)c1c([S+]([O-])C(F)(F)F)c(C#N)nn1-c1c(Cl)cc(C(F)(F)F)cc1Cl (stereo not shown)
33

====

# assayMethodText: Emesis in treated cats
# Type: in vivo
# statedConditions: cats, 20 mg/kg
reportedMetric: % Emesis (%)
Form entry: value (%) — number only.

compound="COCC(=O)N(C)c1c([S+]([O-])C(F)(F)F)c(C#N)nn1-c1c(Cl)cc(C(F)(F)F)cc1Cl (stereo not shown)" recordedvalue=0
compound=CCN(C(=O)OC(C)C)c1c(SC(F)(F)F)c(C#N)nn1-c1c(Cl)cc(C(F)(F)F)cc1Cl recordedvalue=0
compound=CCOCC(=O)N(C)c1c(SC(F)(F)F)c(C#N)nn1-c1c(Cl)cc(C(F)(F)F)cc1Cl recordedvalue=0

Indicate its recorded % Emesis; the compound in question is `CCCN(C(=O)OC(C)C)c1c(SC(F)(F)F)c(C#N)nn1-c1c(Cl)cc(C(F)(F)F)cc1Cl`
0

Indicate its recorded % Emesis; the compound in question is CC(C)OCC(=O)N(C)c1c([S+]([O-])C(F)(F)F)c(C#N)nn1-c1c(Cl)cc(C(F)(F)F)cc1Cl (stereo not shown)
25

Indicate its recorded % Emesis; the compound in question is CN(C(=O)C1CCCO1)c1c(SC(F)(F)F)c(C#N)nn1-c1c(Cl)cc(C(F)(F)F)cc1Cl [(R)1-7]
0

====

# assayMethodText: Emesis in treated cats
# Format: in vivo
# statedConditions: cats, 20 mg/kg
compounds and their reported % Emesis
Form entry: value (%) — number only.

Below, each entry is followed by its recorded % Emesis result.
compound="CCOCC(=O)N(C)c1c([S+]([O-])C(F)(F)F)c(C#N)nn1-c1c(Cl)cc(C(F)(F)F)cc1Cl (racemic) [Compound 3-3]" reportedmetric="% Emesis" unittag=% recordedvalue=0
compound="COCC(=O)N(CC1CC1)c1c(S(=O)(=O)C(F)(F)F)c(C#N)nn1-c1c(Cl)cc(C(F)(F)F)cc1Cl [Compound 27-5]" reportedmetric="% Emesis" unittag=% recordedvalue=0
compound="N#Cc1nn(-c2c(Cl)cc(C(F)(F)F)cc2Cl)c(N(CC2CC2)C(=O)C2CCCO2)c1S(=O)(=O)C(F)(F)F (racemic) [Compound 7-11]" reportedmetric="% Emesis" unittag=% recordedvalue=0
compound="CC(C)OC(=O)N(c1c(SC(F)(F)F)c(C#N)nn1-c1c(Cl)cc(C(F)(F)F)cc1Cl)C(C)C [Compound 81-1]" reportedmetric="% Emesis" unittag=% recordedvalue=0

In the following, a different compound is considered.
Indicate its recorded % Emesis; the compound in question is CC(=O)N(C)c1c(S(=O)(=O)C(F)(F)F)c(C#N)nn1-c1c(Cl)cc(C(F)(F)F)cc1Cl [Compound 1-5]
33

====

molecules and their reported % Emesis
# assayMethodText: Emesis in treated cats
# Type: in vivo
# statedConditions: cats, 20 mg/kg
Form entry: value (%) — number only.

molecule="CN(C(=O)C1CCCO1)c1c(SC(F)(F)F)c(C#N)nn1-c1c(Cl)cc(C(F)(F)F)cc1Cl (racemic) [Compound 1-7]" recordedvalue=25
molecule=CN(C(=O)c1ccc(C(F)(F)F)cc1)c1c(SC(F)(F)F)c(C#N)nn1-c1c(Cl)cc(C(F)(F)F)cc1Cl recordedvalue=0
molecule=CCCN(C(=O)OC)c1c(SC(F)(F)F)c(C#N)nn1-c1c(Cl)cc(C(F)(F)F)cc1Cl recordedvalue=25
molecule=COC(=O)N(C)c1c(SC(F)(F)F)c(C#N)nn1-c1c(Cl)cc(C(F)(F)F)cc1Cl recordedvalue=0
molecule=CCCN(C(=O)COCC)c1c(SC(F)(F)F)c(C#N)nn1-c1c(Cl)cc(C(F)(F)F)cc1Cl recordedvalue=0
molecule=CC(=O)OCC(=O)N(C)c1c(SC(F)(F)F)c(C#N)nn1-c1c(Cl)cc(C(F)(F)F)cc1Cl recordedvalue=25

Indicate its recorded % Emesis; the molecule in question is CCOC(C)C(=O)N(C)c1c(SC(F)(F)F)c(C#N)nn1-c1c(Cl)cc(C(F)(F)F)cc1Cl (racemic)
0

Indicate its recorded % Emesis; the molecule in question is `CCN(C(=O)OC)c1c(SC(F)(F)F)c(C#N)nn1-c1c(Cl)cc(C(F)(F)F)cc1Cl`
50

Indicate its recorded % Emesis; the molecule in question is CN(C(=O)C1CCCCO1)c1c(SC(F)(F)F)c(C#N)nn1-c1c(Cl)cc(C(F)(F)F)cc1Cl (racemic)
0

Indicate its recorded % Emesis; the molecule in question is `N#Cc1nn(-c2c(Cl)cc(C(F)(F)F)cc2Cl)c(N=CNCC(F)(F)F)c1S(=O)(=O)C(F)(F)F`
0

Indicate its recorded % Emesis; the molecule in question is `CCOCC(=O)N(C)c1c(S(=O)(=O)C(F)(F)F)c(C#N)nn1-c1c(Cl)cc(C(F)(F)F)cc1Cl`
0

Indicate its recorded % Emesis; the molecule in question is CN(C(=O)C1CCCO1)c1c(SC(F)(F)F)c(C#N)nn1-c1c(Cl)cc(C(F)(F)F)cc1Cl [(S)1-7]
0

Indicate its recorded % Emesis; the molecule in question is CC(C)N(C(=O)C1CCCO1)c1c(SC(F)(F)F)c(C#N)nn1-c1c(Cl)cc(C(F)(F)F)cc1Cl (centres unmarked)
0

Indicate its recorded % Emesis; the molecule in question is `CCOC(=O)N(C)c1c(SC(F)(F)F)c(C#N)nn1-c1c(Cl)cc(C(F)(F)F)cc1Cl`
0
